# test_target: Dipeptidyl peptidase 4 (Homo sapiens)
# Sequence (P27487 whole entry): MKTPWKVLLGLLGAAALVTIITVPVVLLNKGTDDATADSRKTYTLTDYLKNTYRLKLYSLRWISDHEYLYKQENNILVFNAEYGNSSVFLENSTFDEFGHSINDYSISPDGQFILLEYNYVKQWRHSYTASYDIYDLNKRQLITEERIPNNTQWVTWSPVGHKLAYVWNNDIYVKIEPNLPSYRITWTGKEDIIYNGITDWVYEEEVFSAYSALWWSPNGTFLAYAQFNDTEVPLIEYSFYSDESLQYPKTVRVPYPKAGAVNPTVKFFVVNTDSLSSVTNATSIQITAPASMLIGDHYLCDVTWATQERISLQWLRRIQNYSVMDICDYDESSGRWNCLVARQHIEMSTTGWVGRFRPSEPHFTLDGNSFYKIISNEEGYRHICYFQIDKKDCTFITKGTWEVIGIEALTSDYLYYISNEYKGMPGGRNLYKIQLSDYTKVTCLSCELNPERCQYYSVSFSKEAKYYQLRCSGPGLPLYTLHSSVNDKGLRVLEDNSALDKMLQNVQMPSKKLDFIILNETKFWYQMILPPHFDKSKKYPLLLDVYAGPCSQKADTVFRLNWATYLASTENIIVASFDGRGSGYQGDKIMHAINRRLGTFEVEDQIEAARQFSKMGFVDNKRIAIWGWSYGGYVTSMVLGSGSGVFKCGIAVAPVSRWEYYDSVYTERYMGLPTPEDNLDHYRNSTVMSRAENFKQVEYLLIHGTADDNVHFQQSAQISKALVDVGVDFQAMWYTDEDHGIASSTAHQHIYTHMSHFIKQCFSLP

- structure_notation: "N[C@H]1C[C@@H](N2Cc3cnc(C4CC4)nc3C2)CC[C@@H]1c1cc(F)c(F)cc1F"
  test_target: "Dipeptidyl peptidase 4 (Homo sapiens)"
  IC50, nM: 5.3
- structure_notation: "N[C@H]1C[C@@H](N2Cc3ccccc3C2)CC[C@@H]1c1cc(F)c(F)cc1F"
  test_target: "Dipeptidyl peptidase 4 (Homo sapiens)"
  IC50, nM: 6.6
